Provide the recorded solubility for the entries that follow.
Experimental Details: physchem
Setup Conditions: water, thermodynamic from solid

>>> df
                                   compound  assay_result
0  O=C(Nc1c[nH]nc1-c1nc2cc(CN3CCOCC3)ccc2[nH]1)NC1CC1 [Acetate]    > 25 mg/mL

Now for the compound whose solubility we want.
Given the entry O=C(Nc1c[nH]nc1-c1nc2cc(CN3CCOCC3)ccc2[nH]1)NC1CC1 [D-Gluconate] , report its measured solubility. > 25 mg/mL

----------
Record form. Attribute: solubility. Fill in for each entry.
Experimental Details: physchem
Setup Conditions: water, thermodynamic from solid

>>> print(df.to_string())
                                   compound  reported_endpoint  assay_result
0  O=C(Nc1c[nH]nc1-c1nc2cc(CN3CCOCC3)ccc2[nH]1)NC1CC1 [D-Glucuronate]         solubility   > 100 mg/mL

So what's the measured solubility for this one? O=C(Nc1c[nH]nc1-c1nc2cc(CN3CCOCC3)ccc2[nH]1)NC1CC1 [Acetate] > 100 mg/mL

----------
Experimental Details: physchem
Setup Conditions: water, thermodynamic from solid
Reported Endpoint: solubility at 20 h

solubility at 20 h for O=C(Nc1c[nH]nc1-c1nc2cc(CN3CCOCC3)ccc2[nH]1)NC1CC1 [D-Glucuronate] ? > 50 mg/mL
